ASSAY TEXT: in vivo
Set-up: species or system nude mice
CONDITION INFO: nude, mouse, total radioactivity, Tumor-to-tissue ratio Spleen
*1 amine or outer side, *2 acyl side, *3 side chain or, on linkers, in order; H or OH if unused. Where a SMILES comes first, the peptide text is derived from it. Side-chain parts run from the residue outwards. [ ]: non-standard residue; d: D form. The star is where a group is joined. DOTA = O=C(O)CN1CCN(CC(=O)O)CCN(CC(=O)*)CCN(CC(=O)O)CC1; NH(2-(imidazol-4-yl)ethyl) = c1ncc(CCN*)[nH]1; Suc = O=C(CCC(=O)[*:2])[*:1]
PROPERTY: tissue to tissue ratio at 4 h
Write the value as a bare number.

[in] Please look up its tissue to tissue ratio at 4 h: NC(=O)[C@H](CCCCNC(=O)CNC(=O)CCC(=O)NCCc1cnc[nH]1)NC(=O)[C@@H](Cc1ccc(O)cc1)NC(=O)[C@H](CCCCNC(=O)CNC(=O)CCC(=O)NCCc1cnc[nH]1)NC(=O)[C@H](Cc1ccccc1)NC(=O)CN1CCN(CC(=O)O)CCN(CC(=O)O)CCN(CC(=O)O)CC1 [Ga-67-IMP 241, metal not drawn] ({DOTA}-FK([Gly-Suc-NH(2-(imidazol-4-yl)ethyl)])[dY]K([Gly-Suc-NH(2-(imidazol-4-yl)ethyl)])-NH2)
[out] 26.1

----------
ASSAY TEXT: in vivo
Parameters: species or system nude mice
CONDITION INFO: nude, mouse, total radioactivity, Tumor-to-tissue ratio Liver
Procedure: The bispecific antibody I-125-hMN-14×679-F(ab′)2 (anti-CEA×anti-HSG, radiolabeled with iodine-125 as a tracer radionuclide) was injected into nude mice bearing GW39 human colon tumor xenografts. […] At specified times post-injection, five animals per time-point were sacrificed and tissues collected and counted for both I-125 and Ga-67 radioactivity, using dual energy windows for each respective radionuclide. […]
*1 amine or outer side, *2 acyl side, *3 side chain or, on linkers, in order; H or OH if unused. Where a SMILES comes first, the peptide text is derived from it. Side-chain parts run from the residue outwards. [ ]: non-standard residue; d: D form. The star is where a group is joined. DOTA = O=C(O)CN1CCN(CC(=O)O)CCN(CC(=O)*)CCN(CC(=O)O)CC1; NH(2-(imidazol-4-yl)ethyl) = c1ncc(CCN*)[nH]1; Suc = O=C(CCC(=O)[*:2])[*:1]
PROPERTY: tissue to tissue ratio at 4 h
Write the value as a bare number.

[in] Please look up its tissue to tissue ratio at 4 h: NC(=O)[C@H](CCCCNC(=O)CNC(=O)CCC(=O)NCCc1cnc[nH]1)NC(=O)[C@@H](Cc1ccc(O)cc1)NC(=O)[C@H](CCCCNC(=O)CNC(=O)CCC(=O)NCCc1cnc[nH]1)NC(=O)[C@H](Cc1ccccc1)NC(=O)CN1CCN(CC(=O)O)CCN(CC(=O)O)CCN(CC(=O)O)CC1 [Ga-67-IMP 241, metal not drawn] ({DOTA}-FK([Gly-Suc-NH(2-(imidazol-4-yl)ethyl)])[dY]K([Gly-Suc-NH(2-(imidazol-4-yl)ethyl)])-NH2)
[out] 16.2

----------
ASSAY TEXT: in vivo
Design: species or system nude mice
CONDITION INFO: nude, mouse, total radioactivity, Tumor-to-tissue ratio Liver
*1 amine or outer side, *2 acyl side, *3 side chain or, on linkers, in order; H or OH if unused. Where a SMILES comes first, the peptide text is derived from it. Side-chain parts run from the residue outwards. [ ]: non-standard residue; d: D form. The star is where a group is joined. DOTA = O=C(O)CN1CCN(CC(=O)O)CCN(CC(=O)*)CCN(CC(=O)O)CC1; NH(2-(imidazol-4-yl)ethyl) = c1ncc(CCN*)[nH]1; Suc = O=C(CCC(=O)[*:2])[*:1]
PROPERTY: tissue to tissue ratio at 2 h
Write the value as a bare number.

[in] Please look up its tissue to tissue ratio at 2 h: NC(=O)[C@H](CCCCNC(=O)CNC(=O)CCC(=O)NCCc1cnc[nH]1)NC(=O)[C@@H](Cc1ccc(O)cc1)NC(=O)[C@H](CCCCNC(=O)CNC(=O)CCC(=O)NCCc1cnc[nH]1)NC(=O)[C@H](Cc1ccccc1)NC(=O)CN1CCN(CC(=O)O)CCN(CC(=O)O)CCN(CC(=O)O)CC1 [Ga-67-IMP 241, metal not drawn] ({DOTA}-FK([Gly-Suc-NH(2-(imidazol-4-yl)ethyl)])[dY]K([Gly-Suc-NH(2-(imidazol-4-yl)ethyl)])-NH2)
[out] 15.9
